- TEST_SYSTEM: hROMK (hKir1.1) (Homo sapiens)
- Sequence (P48048 1-391): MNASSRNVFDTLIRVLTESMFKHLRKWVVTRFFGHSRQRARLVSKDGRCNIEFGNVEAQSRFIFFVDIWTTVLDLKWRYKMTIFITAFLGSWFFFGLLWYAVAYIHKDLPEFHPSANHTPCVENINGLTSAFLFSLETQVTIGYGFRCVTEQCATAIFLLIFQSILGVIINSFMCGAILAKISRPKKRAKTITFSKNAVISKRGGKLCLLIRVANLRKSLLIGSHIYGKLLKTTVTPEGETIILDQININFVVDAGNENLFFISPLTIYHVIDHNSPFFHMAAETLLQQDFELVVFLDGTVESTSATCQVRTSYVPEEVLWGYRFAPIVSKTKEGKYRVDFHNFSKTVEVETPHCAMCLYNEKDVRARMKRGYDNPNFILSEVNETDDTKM
- ASSAY_OVERVIEW: Thallium Flux Assay (ROMK channel functional thallium flux, FLIPR-Tetra)
- TEST_CONTEXT: HEK293 cells stably expressing hROMK (hKir1.1); 30 min compound incubation
pIC50: −log10 of the molar value.
Assign Satisfied to entries whose pIC50 meets or exceeds 7; assign Not satisfied to the rest.

Solved entries:
>>> print(df.to_string())
                                   compound                     test_system    class_label
0  CC1OC(=O)C=C1N1CCC2(CCN(C[C@H](O)c3ccc(-n4cnnn4)nc3)CC2)C1=O (mixture of isomers) [Example 227]  hROMK (hKir1.1) (Homo sapiens)  Not satisfied
1  CC1CC2(CC3CCC(C2)N3C[C@H](O)c2ccc(-n3cnnn3)nc2)C(=O)N1C1=CC(=O)OC1 (single isomer, unassigned) [Example 102]  hROMK (hKir1.1) (Homo sapiens)      Satisfied
2  CC1=C(N2C(=O)C3(CCN(C[C@H](O)c4ccc(-n5cnnn5)nc4)CC3)CC2C)COC1=O (single isomer, unassigned) [Example 66]  hROMK (hKir1.1) (Homo sapiens)      Satisfied
3  CC1=C(N2CCC3(CCN(C[C@H](O)c4ccc(-n5cnnn5)cn4)CC3)C2=O)COC1=O  hROMK (hKir1.1) (Homo sapiens)      Satisfied
4  CC1=C(N2CC(O)C3(CCN(CCc4ccc(-n5cnnn5)nn4)CC3)C2=O)COC1=O (single isomer, unassigned)  hROMK (hKir1.1) (Homo sapiens)  Not satisfied

Query: Could you verify whether the entry CC1=C(N2CCC3(CCN(C[C@@H](O)c4ccc(-n5cnnn5)nc4)CC3F)C2=O)COC1=O (single isomer, unassigned) [Example 193] shows pIC50 of no less than 7?
Result: Satisfied

Query: Could you verify whether the entry COC1CN(C[C@@H](O)c2ccc(-n3cnnn3)nc2)CCC12CCN(C1=C(C)C(=O)OC1)C2=O (single isomer, unassigned) [Example 171] shows pIC50 of no less than 7?
Result: Satisfied

Query: Could you verify whether the entry O=C1C=C(N2CCC3(CCN(C[C@@H](O)c4ccc(-n5cnnn5)cc4F)CC3)C2=O)CO1 shows pIC50 of no less than 7?
Result: Satisfied

Query: Could you verify whether the entry CC1=C(N2CCC3(CCN(C[C@H](O)c4nnc(-n5cnnn5)cc4C)CC3F)C2=O)COC1=O (single isomer, unassigned) [Example 185] shows pIC50 of no less than 7?
Result: Satisfied
